Tested on: Calu-3
Test: cell viability relative to DMSO; higher = less toxic
Conditions: 72 h; 10000 nM
Measurement Type: cell viability (%)
Write the number in % without appending the unit.

Examples with answers:
Compound | cell viability (%)
Cc1c(F)cc(C(=O)NC2CC2)cc1-c1ccc(C(=O)NCC(C)(C)C)cn1 [losmapimod] | 87.7
CC/C(=C(/c1ccc(/C=C/C(=O)O)cc1)c1ccc2[nH]ncc2c1)c1ccc(F)cc1Cl [GDC-0810] | 105
Cc1ccccc1NC(=O)Nc1ccc(CC(=O)N(C)[C@@H](CC(C)C)C(=O)NCC[C@H](NC(=O)[C@@H]2CCCN2S(=O)(=O)c2cc(Cl)cc(Cl)c2)C(=O)O)cc1 [BIO-5192] | 104
NCC(=O)Nc1ccc(-n2nc(C(F)(F)F)cc2-c2ccc3c(ccc4ccccc43)c2)cc1 [AR-12] | 45.4
Cc1ncc(C)n2nc([C@@H]3C[C@H]3c3nc4c5cccnc5ccn4c3C)nc12 [PDE10-IN-1] | 117

Ask: // fetch Calu-3 cell viability for CC(C)=CCC/C(C)=C/CC/C(C)=C/CCC(=O)OC/C=C(\C)CCC=C(C)C [geranyl-farnesylacetate]
Result: 96.4

Ask: // fetch Calu-3 cell viability for `O=C(O)[C@H]1CC[C@H](c2cc3cccnc3c(-c3cccc(F)c3)n2)CC1`
Result: 107

Ask: // fetch Calu-3 cell viability for N[C@@H](CSCCCO)C(=O)O [fudosteine]
Result: 115

Ask: // fetch Calu-3 cell viability for OCc1cc([C@@H](O)CNCCCCCCOCCOCc2c(Cl)cccc2Cl)ccc1O [vilanterol]
Result: 97

Ask: // fetch Calu-3 cell viability for `Nc1nc(=O)c2sc(=O)n([C@@H]3O[C@H](CO)[C@@H](O)[C@H]3O)c2[nH]1`
Result: 97.5

Ask: // fetch Calu-3 cell viability for O=C(CN1CCN(Cc2ccc3c(c2)OCO3)CC1)N1c2ccccc2Sc2ccccc21 [fenoverine]
Result: 110

Data provenance: the supplement of paper PMC13380429
